Data provenance is patent US20230241071A1.

# assay explanation: Multiple-ascending dose trial of Compound 2 in healthy participants
# Format: in vivo, human
# condition context: human, plasma, oral; Day 14, 10 mg QD; read-out: t1/2 (median) (converted)
quantity kind: half-life
Output should be the measured figure followed by the unit it is expressed in.

Return reported half-life; argument: N#Cc1nn(-c2cc(Cl)c(Oc3n[nH]c(=O)c4ccccc34)c(Cl)c2)c(=O)[nH]c1=O [Compound 2] 924 min
